- Tested on: Escherichia coli TOP10;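 also: peptides expressed intracellularly from a pBAD plasmid library in pooled LB shake-flask culture, induced with 0.3% L-arabinose, DNA abundance read by NGS, three biological replicates, DESeq2 with apeglm shrinkage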
- Assay: shrunken log2 fold change of peptide-encoding DNA abundance (4.5 h post-induction vs induction); higher = less antimicrobial activity (less host growth inhibition)
- Assay context: time post-induction: 4.5 h; library: site-saturation at positions 5, 18, 19, 20
Decide by shrunken log2 fold change: equal to or exceeding 0.2 means rule met, less means rule not met.

Worked examples follow.
RRIRGRPPRLPRPRPRPTFLPRP
rule met
RRIRARPPRLPRPRPRPAEYPRP
rule not met
RRIRNRPPRLPRPRPRPQVVPRP
rule not met
RRIRTRPPRLPRPRPRPDNDPRP
rule not met
RRIRMRPPRLPRPRPRPHTLPRP
rule not met
RRIRQRPPRLPRPRPRPTQDPRP
rule met
RRIRIRPPRLPRPRPRPEGSPRP
rule not met
RRIRARPPRLPRPRPRPSRGPRP
rule met
RRIRSRPPRLPRPRPRPNKRPRP
rule not met
RRIRSRPPRLPRPRPRPPPLPRP
rule met

In plain terms: is recorded shrunken log2 fold change at least 0.2 for RRIRTRPPRLPRPRPRPVGWPRP ? rule met

Query RRIRQRPPRLPRPRPRPVMFPRP next rule not met
